Target: EGF receptor partially purified by A431 cell line (Homo sapiens, UniProt P00533)
Construct: A431 cell membrane fraction, which was used for the assay as an enzyme source of partially purified EGF receptor; endogenous in cells
Sequence (P00533 25-1210): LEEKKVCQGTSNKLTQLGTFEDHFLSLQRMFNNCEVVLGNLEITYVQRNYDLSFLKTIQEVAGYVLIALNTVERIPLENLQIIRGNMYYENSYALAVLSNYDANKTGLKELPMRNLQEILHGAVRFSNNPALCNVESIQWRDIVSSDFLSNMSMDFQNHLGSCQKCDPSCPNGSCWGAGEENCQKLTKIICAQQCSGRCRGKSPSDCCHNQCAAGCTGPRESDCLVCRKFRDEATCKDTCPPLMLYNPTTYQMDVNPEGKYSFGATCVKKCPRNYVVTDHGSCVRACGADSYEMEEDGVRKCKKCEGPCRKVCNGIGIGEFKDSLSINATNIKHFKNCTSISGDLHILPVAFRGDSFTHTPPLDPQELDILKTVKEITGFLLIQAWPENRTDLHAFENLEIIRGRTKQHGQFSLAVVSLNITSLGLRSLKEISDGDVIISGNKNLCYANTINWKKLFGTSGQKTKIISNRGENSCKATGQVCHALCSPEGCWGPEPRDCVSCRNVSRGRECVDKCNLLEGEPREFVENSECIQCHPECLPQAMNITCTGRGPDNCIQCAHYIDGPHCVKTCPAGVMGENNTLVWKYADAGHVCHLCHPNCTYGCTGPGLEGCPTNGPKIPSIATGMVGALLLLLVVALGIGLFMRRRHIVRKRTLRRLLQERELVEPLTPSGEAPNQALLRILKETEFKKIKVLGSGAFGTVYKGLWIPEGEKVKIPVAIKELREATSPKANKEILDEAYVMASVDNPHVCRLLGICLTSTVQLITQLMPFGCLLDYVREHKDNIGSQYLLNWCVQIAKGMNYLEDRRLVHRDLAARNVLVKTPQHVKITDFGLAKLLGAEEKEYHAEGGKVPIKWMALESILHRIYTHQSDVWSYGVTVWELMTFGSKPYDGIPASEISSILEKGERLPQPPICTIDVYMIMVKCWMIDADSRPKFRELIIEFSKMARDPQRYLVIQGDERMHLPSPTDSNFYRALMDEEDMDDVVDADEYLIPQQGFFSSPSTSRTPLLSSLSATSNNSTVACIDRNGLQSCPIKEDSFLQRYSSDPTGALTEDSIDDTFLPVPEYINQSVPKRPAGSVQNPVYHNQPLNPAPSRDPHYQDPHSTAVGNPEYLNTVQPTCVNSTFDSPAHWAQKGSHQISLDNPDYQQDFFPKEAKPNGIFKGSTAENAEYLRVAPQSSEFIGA
Experiment: EGFR tyrosine kinase inhibitory action (A431 cell membrane fraction, 32P-ATP, Angiotensin II substrate)
Conditions: EGF-stimulated, 10 μM ATP, in ice for 30 min
pIC50: −log10 of the molar value.
REPORTED_METRIC: pIC50

Past entries and their recorded results:
COc1cc2ncnc(Nc3ccc(F)c(Cl)c3)c2cc1C#CC(C)(C)N1CCN(C)CC1 : 8.96
CCOc1cc2ncnc(Nc3ccc(F)c(Cl)c3)c2cc1C#CC(C)(C)NCCN1CCOCC1 : 8.47
CC(C)(C#Cc1cc2ncnc(Nc3ccc(F)c(Cl)c3)c2cc1NS(C)(=O)=O)N1CCN(CCC#N)CC1 : 8.60
COc1cc2ncnc(Nc3ccc(F)c(Cl)c3)c2cc1C#CC(C)(C)N1CCN(CC#N)CC1 : 8.89
CCOc1cc2ncnc(Nc3ccc(F)c(Cl)c3)c2cc1C#CC(C)(C)N1CCN(CC#N)CC1 : 8.96

[a] COc1cccc(Nc2ncnc3cc(OC)c(C#CC(C)(C)N4CCN(C)CC4)cc23)c1
[b] COc1cc2ncnc(Nc3ccc(F)c(Cl)c3)c2cc1C#CC(C)(C)N1CCNCC1
[c] COc1cc2ncnc(Nc3ccc(F)c(Cl)c3)c2cc1C#CC(C)(C)N1CCN(CC(C)C)CC1
[d] CCOc1cc2ncnc(Nc3ccc(F)c(Cl)c3)c2cc1C#CC(C)(C)N1CCN(CCOC)CC1
[e] COc1cc2ncnc(Nc3ccc(F)c(Cl)c3)c2cc1/C=C/C(C)(C)N1CCN(C)CC1
Qu. List by increasing pIC50. List the labels, following the order given in the request.
Ans. c, a, d, b, e

[P] C#Cc1cccc(Nc2ncnc3cc(OCC)c(C#CC(C)(C)N4CCN(CC#N)CC4)cc23)c1
[Q] CCOc1cc2ncnc(Nc3ccc(F)c(Cl)c3)c2cc1C#CC(C)(C)N1CCCCC1
Qu. I need your help: which of the pair P , Q has higher pIC50? Identify your pick by its label.
Ans. P

[P] CCOc1cc2ncnc(Nc3ccc(F)c(Cl)c3)c2cc1C#CC(C)(C)N1CCN(C(C)=O)CC1
[Q] COc1cc2c(Nc3ccc(F)c(Cl)c3)ncnc2cc1C#CC(C)(C)N1CCN(C)CC1
[R] C=CC(=O)Nc1cc2c(Nc3ccc(F)c(Cl)c3)ncnc2cc1C#CC(C)(C)N1CCC(N(C)C)CC1
[S] CCOc1cc2ncnc(Nc3ccc(F)c(Cl)c3)c2cc1C#CC1(N2CCN(C)CC2)CCCCC1
Qu. Arrange the 4 compounds from largest to smallest pIC50. List the labels, following the order given in the request.
Ans. Q, R, P, S

[I] CCOc1cc2ncnc(Nc3ccc(F)c(Cl)c3)c2cc1C#CC(C)(C)N(C)CCN(C)C
[II] C=CC(=O)Nc1cc2c(Nc3ccc(F)c(Cl)c3)ncnc2cc1C#CC(C)(C)N1CCN(CC#N)CC1
Qu. I need your help: which of the pair I , II has higher pIC50? Identify your pick by its label.
Ans. I
(I: 8.66, II: 8.41)

[P] C#Cc1cccc(Nc2ncnc3cc(OCC)c(C#CC(C)(C)N4CCN(C)CC4)cc23)c1
[Q] CCOc1cc2ncnc(Nc3ccc(F)c(Cl)c3)c2cc1C#CC(C)(C)N1CCC(O)CC1
Qu. I need your help: which of the pair P , Q has higher pIC50? Identify your pick by its label.
Ans. Q

[1] CCOCCN(CCOCC)C(C)(C)C#Cc1cc2c(Nc3ccc(F)c(Cl)c3)ncnc2cc1OCC
[2] CCN(CCC(=O)OC)C(C)(C)C#Cc1cc2ncnc(Nc3ccc(F)c(Cl)c3)c2cc1NS(C)(=O)=O
Qu. I need your help: which of the pair 1 , 2 has higher pIC50? Identify your pick by its label.
Ans. 1
(1: 8.49, 2: 8.26)
